// data source = ChEMBL document CHEMBL1795213

# Assay Comment: Solubility of the compound in buffer
# Format: physicochemical
Readout Name: solubility (µM)

Structure Smiles String	Readout Name	Measured Value
N=C(N)NCCC[C@H](NC(=O)[C@H](Cc1ccccc1)NC(=O)[C@H](Cc1ccccc1)NC(=O)OCc1ccccc1)C(=O)Cc1ccccc1	solubility	400
Cc1c(C)c(S(=O)(=O)NC(=N)NCCCC[C@H](NC(=O)[C@H](Cc2ccccc2)NC(=O)[C@H](Cc2ccccc2)NC(=O)OCc2ccccc2)C(=O)Cc2ccccc2)c(C)c2c1OC(C)(C)CC2	solubility	400
Cc1c(C)c(S(=O)(=O)NC(=N)NCCCC[C@H](NC(=O)[C@H](Cc2ccccc2)NC(=O)[C@H](Cc2ccccc2)NC(=O)OC(C)(C)C)C(=O)Cc2ccccc2)c(C)c2c1OC(C)(C)CC2	solubility	400
Cc1c(C)c(S(=O)(=O)NC(=N)NCCCC[C@H](NC(=O)[C@H](CC(C)C)NC(=O)[C@H](Cc2ccccc2)NC(=O)OC(C)(C)C)C(=O)Cc2ccccc2)c(C)c2c1OC(C)(C)CC2	solubility	400
Cc1c(C)c(S(=O)(=O)NC(=N)NCCC[C@H](NC(=O)[C@H](CC(C)C)NC(=O)OC(C)(C)C)C(=O)Cc2ccccc2)c(C)c2c1OC(C)(C)CC2	solubility	400

----------
# Target System: UniProt P00742
Readout Name: IC50

# IC50 (compound: C[C@@H](O)[C@H](NC(=O)[C@@H](N)Cc1ccc(O)cc1)C(=O)N[C@@H](CCCCN=C(N)N)C(=O)Cc1ccccc1 ) is > 1340 µM

----------
# Target System: Coagulation factor VII (Homo sapiens)
# Assay Comment: Inhibition of recombinant F7a using S-2288 as substrate after 15 mins by competitive binding assay
Readout Name: IC50 (µM)

// worked examples, IC50 included
> print(dat)
                    structure.smiles.string                          target.system  measured.value
1  N=C(N)NCCC[C@H](NC(=O)[C@H](Cc1ccccc1)NC(=O)[C@@H](Cc1ccccc1)NC(=O)OCc1ccccc1)C(=O)Cc1ccccc1  Coagulation factor VII (Homo sapiens)              16
2  N=C(N)NCCC[C@H](NC(=O)[C@H](Cc1ccccc1)NC(=O)[C@H](Cc1ccccc1)NC(=O)OCc1ccccc1)C(=O)Cc1ccccc1  Coagulation factor VII (Homo sapiens)             109

(I) N=C(N)NCCC[C@H](NC(=O)[C@H](Cc1ccccc1)NC(=O)[C@@H](Cc1ccccc1)NS(=O)(=O)Cc1ccccc1)C(=O)Cc1ccccc1
(II) N=C(N)NCCC[C@H](NC(=O)[C@H](Cc1ccccc1)NC(=O)[C@H](Cc1ccccc1)NS(=O)(=O)Cc1ccccc1)C(=O)Cc1ccccc1
Which shows the larger IC50 value: I or II ? Respond using the label that marks the chosen record.
I
(I: 640 µM, II: 26 µM)

----------
# Target System: Coagulation factor VII (Homo sapiens)
# Sequence (P08709 whole entry): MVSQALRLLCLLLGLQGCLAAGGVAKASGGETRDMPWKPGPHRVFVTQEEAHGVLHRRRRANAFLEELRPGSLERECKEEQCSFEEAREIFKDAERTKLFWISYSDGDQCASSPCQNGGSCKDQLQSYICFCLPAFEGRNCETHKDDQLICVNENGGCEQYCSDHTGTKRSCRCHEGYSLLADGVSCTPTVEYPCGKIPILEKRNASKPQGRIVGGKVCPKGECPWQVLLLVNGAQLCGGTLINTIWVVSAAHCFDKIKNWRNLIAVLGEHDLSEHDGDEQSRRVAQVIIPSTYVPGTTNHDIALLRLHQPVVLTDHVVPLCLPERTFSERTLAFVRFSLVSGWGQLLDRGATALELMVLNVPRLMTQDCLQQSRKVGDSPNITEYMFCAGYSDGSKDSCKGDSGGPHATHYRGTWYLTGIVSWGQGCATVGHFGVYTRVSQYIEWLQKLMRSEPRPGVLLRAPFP
# Assay Comment: Inhibition of recombinant F7a using S-2288 as substrate after 15 mins by competitive binding assay
Recorded IC50 by entry

The following molecules have reported results that may help.
> print(dat)
                    structure.smiles.string  measured.value
1  CC(=O)N[C@@H](Cc1ccccc1)C(=O)N[C@@H](Cc1ccccc1)C(=O)N[C@@H](CCCNC(=N)N)C(=O)Cc1ccccc1        > 400 µM
2  C[C@@H](O)[C@H](NC(=O)[C@@H](N)Cc1ccc(O)cc1)C(=O)N[C@@H](CCCNC(=N)N)C(=O)Cc1ccccc1       > 1340 µM
3  N=C(N)NCCC[C@H](NC(=O)[C@H](Cc1ccccc1)NC(=O)[C@@H](N)Cc1ccccc1)C(=O)Cc1ccccc1       > 1480 µM

IC50 of CC(C)C[C@H](NC(=O)[C@H](Cc1ccccc1)NS(=O)(=O)Cc1ccccc1)C(=O)N[C@@H](CCCNC(=N)N)C(=O)Cc1ccccc1 , assay on Coagulation factor VII (Homo sapiens), is > 580 µM

Field IC50 (Coagulation factor VII (Homo sapiens)), entry CC(=O)N[C@@H](Cc1ccc(O)cc1)C(=O)N[C@H](C(=O)N[C@@H](CCCNC(=N)N)C(=O)Cc1ccccc1)[C@@H](C)O : > 1340 µM
